The following binders are listed with their measured % inhibition at 10 nM values.
Biological target: human plasma kallikrein (human, UniProt P03952 20-390; P03952 391-638)
Sequence (P03952 20-390, chain 1 of 2): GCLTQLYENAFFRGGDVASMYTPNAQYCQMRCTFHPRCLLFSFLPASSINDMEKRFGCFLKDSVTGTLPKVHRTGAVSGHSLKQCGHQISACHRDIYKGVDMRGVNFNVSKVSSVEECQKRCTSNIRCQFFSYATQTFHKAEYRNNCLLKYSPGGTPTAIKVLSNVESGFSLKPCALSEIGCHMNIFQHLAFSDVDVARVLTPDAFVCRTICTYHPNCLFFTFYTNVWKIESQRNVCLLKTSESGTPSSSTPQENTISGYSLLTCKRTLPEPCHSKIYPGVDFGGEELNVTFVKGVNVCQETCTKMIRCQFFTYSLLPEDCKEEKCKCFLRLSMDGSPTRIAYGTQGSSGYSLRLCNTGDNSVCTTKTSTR
Sequence (P03952 391-638, chain 2 of 2): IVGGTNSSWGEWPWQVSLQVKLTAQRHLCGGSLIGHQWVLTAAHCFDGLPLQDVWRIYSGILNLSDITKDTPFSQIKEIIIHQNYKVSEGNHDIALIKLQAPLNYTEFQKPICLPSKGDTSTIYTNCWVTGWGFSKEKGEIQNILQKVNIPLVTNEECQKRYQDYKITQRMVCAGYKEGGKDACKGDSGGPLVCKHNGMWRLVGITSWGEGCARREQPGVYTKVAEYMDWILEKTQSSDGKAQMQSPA
Test: cell-based or functional assay
property name: % inhibition at 10 nM (%)

>  <binder>
M208-F04 (Fab, V domains shown, Tested as Fab; printed HC runs into CH1) VH: EVQLLESGGGLVQPGGSLRLSCAASGFTFSHYLMTWVRQAPGKGLEWVSYISPSGGHTIYADSVKGRFTISRDNSKNTLYLQMNSLRAEDTAVYYCARVARGIAARSRTSFFDYWGQGTLVTVSS VL: DIQMTQSPGTLSLSPGERATLSCRTSQFVNSNYLAWYQQTPGQAPRLLIYGASSRATGIPDRFSGTGYGTDFTLTISRLEPEDYGTYYCQQSSRTPWTFGQGTRVEIK

>  <experimental value>
95.4

$$$$
>  <binder>
M210-H06 (Fab, V domains shown, Tested as Fab; printed HC runs into CH1) VH: EVQLLESGGGLVQPGGSLRLSCAASGFTFSHYLMTWVRQAPGKGLEWVSYISPSGGHTIYADSVKGRFTISRDNSKNTLYLQMNSLRAEDTAVYYCARVARGIAARSRTRYFDYWGQGTLVTVSS VL: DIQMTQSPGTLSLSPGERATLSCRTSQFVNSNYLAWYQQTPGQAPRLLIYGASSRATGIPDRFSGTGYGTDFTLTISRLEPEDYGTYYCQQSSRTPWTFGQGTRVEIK

>  <experimental value>
93.8

$$$$
>  <binder>
M206-H04 (Fab, V domains shown) VH: EVQLLESGGGLVQPGGSLRLSCAASGFTFSSYMMVWVRQAPGKGLEWVSSISPSGGYTIQADSVKGRFTISRDNSKNTLYLQMNSLRAEDTAVYYCARVARGIAARSRTSYFDYWGQGTLVTVSS VL: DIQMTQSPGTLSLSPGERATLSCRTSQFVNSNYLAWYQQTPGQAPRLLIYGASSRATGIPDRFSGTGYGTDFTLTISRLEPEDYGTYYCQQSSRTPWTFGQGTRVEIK

>  <experimental value>
19

$$$$
>  <binder>
M210-H07 (Fab, V domains shown, Tested as Fab; printed HC runs into CH1; amber q written Q) VH: EVQLLESGGGLVQPGGSLRLSCAASGFTFSHYLMTWVRQAPGKGLEWVSYISPSGGHTIYADSVKGRFTISRDNSKNTLYLQMNSLRAEDTAVYYCARVARGIAARSRTRYFDQWGQGTLVTVSS VL: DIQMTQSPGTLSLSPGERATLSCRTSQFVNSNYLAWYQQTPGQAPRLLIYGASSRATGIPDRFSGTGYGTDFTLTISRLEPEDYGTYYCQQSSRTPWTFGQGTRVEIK

>  <experimental value>
92.8

$$$$
>  <binder>
M209-D12 (Fab, V domains shown) VH: EVQLLESGGGLVQPGGSLRLSCAASGFTFSHYLMTWVRQAPGKGLEWVSYISPSGGHTIYADSVKGRFTISRDNSKNTLYLQMNSLRAEDTAVYYCATVARGIAARSRTSYFDQWGQGTLVTVSS VL: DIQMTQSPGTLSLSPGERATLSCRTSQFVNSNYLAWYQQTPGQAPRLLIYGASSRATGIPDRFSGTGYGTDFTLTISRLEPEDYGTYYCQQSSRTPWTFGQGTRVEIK

>  <experimental value>
85.4

$$$$
>  <binder>
M206-H01 (Fab, V domains shown) VH: EVQLLESGGGLVQPGGSLRLSCAASGFTFSEYMMVWVRQAPGKGLEWVSRISPSGGTTEYADSVKGRFTISRDNSKNTLYLQMNSLRAEDTAVYYCARVARGIAARSRTSYFDYWGQGTLVTVSS VL: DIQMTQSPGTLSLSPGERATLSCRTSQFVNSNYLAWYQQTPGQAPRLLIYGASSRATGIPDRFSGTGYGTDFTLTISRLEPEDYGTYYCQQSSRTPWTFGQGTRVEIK

>  <experimental value>
87.6

$$$$
>  <binder>
M209-B09 (Fab, V domains shown, Tested as Fab; printed HC runs into CH1; amber q written Q) VH: EVQLLESGGGLVQPGGSLRLSCAASGFTFSHYLMTWVRQAPGKGLEWVSYISPSGGHTIYADSVKGRFTISRDNSKNTLYLQMNSLRAEDTAVYYCARVAQGIVARSRTSYLHQWGQGTLVTVSS VL: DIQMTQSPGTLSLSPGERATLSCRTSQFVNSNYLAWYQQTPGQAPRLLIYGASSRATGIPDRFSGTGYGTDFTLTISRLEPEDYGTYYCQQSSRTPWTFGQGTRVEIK

>  <experimental value>
93.5

$$$$
>  <binder>
M210-C12 (Fab, V domains shown, Tested as Fab; printed HC runs into CH1; amber q written Q) VH: EVQLLESGGGLVQPGGSLRLSCAASGFTFSHYLMTWVRQAPGKGLEWVSYISPSGGHTIYADSVKGRFTISRDNSKNTLYLQMNSLRAEDTAVYYCARVAQGIAARSRTSSVDQWGQGTLVTVSS VL: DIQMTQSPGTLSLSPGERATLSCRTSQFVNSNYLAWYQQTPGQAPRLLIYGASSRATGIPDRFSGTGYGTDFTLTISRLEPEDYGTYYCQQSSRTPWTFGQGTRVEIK

>  <experimental value>
95.6

$$$$
>  <binder>
M208-G02 (Fab, V domains shown) VH: EVQLLESGGGLVQPGGSLRLSCAASGFTFSHYLMTWVRQAPGKGLEWVSYISPSGGHTIYADSVKGRFTISRDNSKNTLYLQMNSLRAEDTAVYYCARVARGIADRSRTSYSDYWGQGTLVTVSS VL: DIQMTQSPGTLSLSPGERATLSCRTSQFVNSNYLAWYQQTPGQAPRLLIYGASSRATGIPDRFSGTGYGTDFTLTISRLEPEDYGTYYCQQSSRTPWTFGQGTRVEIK

>  <experimental value>
86.7

$$$$
>  <binder>
M209-B01 (Fab, V domains shown) VH: EVQLLESGGGLVQPGGSLRLSCAASGFTFSHYLMTWVRQAPGKGLEWVSYISPSGGHTIYADSVKGRFTISRDNSKNTLYLQMNSLRAEDTAVYYCARVARGIVARSRTSNFDQWGQGTLVTVSS VL: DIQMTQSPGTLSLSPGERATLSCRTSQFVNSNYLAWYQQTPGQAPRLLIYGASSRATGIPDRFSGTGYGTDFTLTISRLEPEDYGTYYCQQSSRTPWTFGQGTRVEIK

>  <experimental value>
47

$$$$
